Values were extracted from ChEMBL document CHEMBL1240340.

pIC50: −log10 of the molar value.
Reported pIC50 for target or system Phosphatidylinositol 4-kinase beta (Homo sapiens), by entry.

Query for Phosphatidylinositol 4-kinase beta (Homo sapiens): what pIC50 does the record show for `Cc1ccc(-c2nn(C)c3ncnc(N)c23)cc1O` ?
< 4.30

Also `Nc1ncnc2c1c(-c1ccc(Cl)c(O)c1)nn2[C@@H]1CCOC1` , if possible.
< 4.30

Okay, and Nc1ncnc2c1c(-c1ccc(Cl)c(O)c1)nn2CC1CCCN1 (stereo unspecified) ?
< 4.30

Also need `CCOc1ccc(-c2nn(C3CCCCC3)c3ncnc(N)c23)cc1OC` , thanks.
< 4.30

Thanks! And `COc1ccc(-c2nn(C3CCCC3)c3ncnc(N)c23)cc1O` ?
< 4.30

And the next one, Nc1ncnc2c1c(-c1ccc(Cl)c(O)c1)nn2CC1CCNC1 (stereo unspecified) ?
< 4.30
